study.target: Hepsin (Homo sapiens)
Construct: Extracellular part of human Hepsin (amino acids 45-417), SRCR and trypsin-like serine protease domains
Sequence (P05981 45-162): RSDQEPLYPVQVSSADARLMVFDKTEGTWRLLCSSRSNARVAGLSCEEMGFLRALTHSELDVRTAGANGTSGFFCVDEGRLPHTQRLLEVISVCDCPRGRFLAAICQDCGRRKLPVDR
Sequence (P05981 163-417): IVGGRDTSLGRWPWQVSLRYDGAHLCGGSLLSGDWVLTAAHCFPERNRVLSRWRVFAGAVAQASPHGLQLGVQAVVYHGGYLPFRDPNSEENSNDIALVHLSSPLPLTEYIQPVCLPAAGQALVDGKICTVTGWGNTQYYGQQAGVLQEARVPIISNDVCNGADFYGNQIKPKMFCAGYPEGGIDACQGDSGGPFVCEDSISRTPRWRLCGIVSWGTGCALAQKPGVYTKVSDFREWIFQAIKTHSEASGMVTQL
assay.summary: chromogenic peptide (pyroGlu-Pro-Arg-pNA) protease assay with purified recombinant Hepsin; also pro-HGF cleavage
measured.metric: pIC50
Answers are plain numbers, as −log10 of the molar value.

Any idea what pIC50 came out for Brc1ccc(C2Nc3cccc4cccc(c34)N2)cc1 [HepIn-13] on Hepsin (Homo sapiens)?
6.48
